This collection of values is drawn from patent US20250353852A1.

target: full-length human PIKFYVE (Homo sapiens (Human), UniProt Q9Y2I7, L932S/Q1183K/Q995L/S1033A/S696N/T998S); experiment: PIKfyve biochemical assay (ADP-Glo Kinase assay, Carna Biosciences); conditions: class symbols
Sequence (Q9Y2I7 whole entry S696N/L932S/Q995L/T998S/S1033A/Q1183K): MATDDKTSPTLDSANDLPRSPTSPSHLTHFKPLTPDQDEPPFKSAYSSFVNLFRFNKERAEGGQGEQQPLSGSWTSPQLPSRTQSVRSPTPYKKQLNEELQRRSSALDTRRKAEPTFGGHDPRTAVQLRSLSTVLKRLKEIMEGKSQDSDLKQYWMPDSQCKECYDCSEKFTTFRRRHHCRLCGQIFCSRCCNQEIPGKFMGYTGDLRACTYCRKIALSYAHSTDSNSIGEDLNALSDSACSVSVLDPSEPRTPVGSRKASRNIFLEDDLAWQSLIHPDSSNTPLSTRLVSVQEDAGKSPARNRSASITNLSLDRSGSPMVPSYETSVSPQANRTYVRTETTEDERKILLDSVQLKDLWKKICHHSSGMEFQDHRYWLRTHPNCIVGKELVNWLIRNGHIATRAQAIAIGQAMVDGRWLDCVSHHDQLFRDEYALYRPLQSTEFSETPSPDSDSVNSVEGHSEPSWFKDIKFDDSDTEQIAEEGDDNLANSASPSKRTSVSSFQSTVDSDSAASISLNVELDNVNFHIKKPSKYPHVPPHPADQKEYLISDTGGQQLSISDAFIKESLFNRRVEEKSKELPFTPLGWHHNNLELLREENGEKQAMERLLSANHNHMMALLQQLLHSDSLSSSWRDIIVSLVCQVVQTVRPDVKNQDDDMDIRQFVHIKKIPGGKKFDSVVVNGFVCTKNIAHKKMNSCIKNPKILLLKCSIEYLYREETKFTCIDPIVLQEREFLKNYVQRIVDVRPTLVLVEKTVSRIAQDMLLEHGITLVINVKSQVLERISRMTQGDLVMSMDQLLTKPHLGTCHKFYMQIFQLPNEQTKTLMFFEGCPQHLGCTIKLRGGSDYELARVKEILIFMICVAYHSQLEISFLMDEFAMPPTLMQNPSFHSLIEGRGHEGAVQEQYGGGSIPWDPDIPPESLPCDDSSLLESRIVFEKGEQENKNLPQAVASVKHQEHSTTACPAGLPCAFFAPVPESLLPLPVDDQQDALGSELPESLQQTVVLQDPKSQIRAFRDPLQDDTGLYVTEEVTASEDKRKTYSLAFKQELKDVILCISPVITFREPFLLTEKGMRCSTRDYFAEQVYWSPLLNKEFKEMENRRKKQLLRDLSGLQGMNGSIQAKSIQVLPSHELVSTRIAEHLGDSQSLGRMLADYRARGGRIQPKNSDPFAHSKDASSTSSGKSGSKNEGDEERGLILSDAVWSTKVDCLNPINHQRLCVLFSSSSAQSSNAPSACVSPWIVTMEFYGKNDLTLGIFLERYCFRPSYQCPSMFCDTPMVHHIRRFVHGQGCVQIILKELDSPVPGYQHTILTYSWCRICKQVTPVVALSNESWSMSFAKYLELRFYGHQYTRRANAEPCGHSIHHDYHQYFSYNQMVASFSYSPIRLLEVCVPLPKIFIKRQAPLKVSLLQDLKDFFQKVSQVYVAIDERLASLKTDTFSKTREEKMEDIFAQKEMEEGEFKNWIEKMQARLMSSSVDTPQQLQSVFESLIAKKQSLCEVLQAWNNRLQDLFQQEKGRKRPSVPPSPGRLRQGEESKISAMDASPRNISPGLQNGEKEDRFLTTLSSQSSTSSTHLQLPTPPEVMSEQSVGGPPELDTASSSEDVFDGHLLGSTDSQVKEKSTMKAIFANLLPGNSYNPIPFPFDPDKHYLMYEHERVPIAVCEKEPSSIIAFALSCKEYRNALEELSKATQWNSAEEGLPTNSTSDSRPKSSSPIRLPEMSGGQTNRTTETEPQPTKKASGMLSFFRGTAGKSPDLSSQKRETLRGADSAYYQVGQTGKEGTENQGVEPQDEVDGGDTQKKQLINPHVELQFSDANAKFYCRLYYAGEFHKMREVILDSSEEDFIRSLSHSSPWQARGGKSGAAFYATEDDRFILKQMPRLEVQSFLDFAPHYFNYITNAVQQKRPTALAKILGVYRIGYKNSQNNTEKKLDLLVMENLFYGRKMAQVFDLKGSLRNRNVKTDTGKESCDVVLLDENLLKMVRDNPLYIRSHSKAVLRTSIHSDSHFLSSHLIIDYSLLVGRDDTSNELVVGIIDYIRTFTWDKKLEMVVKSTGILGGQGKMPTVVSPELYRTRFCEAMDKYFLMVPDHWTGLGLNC

{"Molecule": "c1cncc(-n2nccc2-c2cc(N3CCOCC3)n3nc(-c4ccncc4)cc3n2)c1 [Compound 12]", "IC50": "1000 to 10000 nM"}
{"Molecule": "Oc1cc(-c2cc(N3CCOCC3)n3nc(-c4ccncc4)cc3n2)nn1-c1ccccc1 [Compound 57]", "IC50": "10 to 100 nM"}
{"Molecule": "CC(C)(C)OC(=O)N1CCN(c2cc(N3CCOCC3)n3nc(-c4ccncc4)cc3n2)C(Cc2ccccc2)C1 (stereo not shown) [Compound 116]", "IC50": "1000 to 10000 nM"}
{"Molecule": "c1cncc(-c2ccn(-c3cc(N4CCOCC4)n4nc(C5CCCO5)cc4n3)n2)c1 (stereo not shown) [Compound 92]", "IC50": "1000 to 10000 nM"}
{"Molecule": "Oc1cc(C2CCOCC2)nn1-c1cc(N2CCOCC2)n2nc(-c3ccncc3)cc2n1 [Compound 50]", "IC50": "100 to 1000 nM"}
{"Molecule": "Cc1cccc(CCOc2cc(N3CCOCC3)n3nc(-c4ccncc4)cc3n2)c1 [Compound 2]", "IC50": "1000 to 10000 nM"}
{"Molecule": "Cc1cccc(-c2ccn(-c3cc(N4CCOCC4)n4nc(-c5ccncc5)cc4n3)n2)c1 [Compound 65]", "IC50": "10 to 100 nM"}
{"Molecule": "O=c1ccc(-c2ccccc2)nn1-c1cc(N2CCOCC2)n2nc(-c3ccncc3)cc2n1 [Compound 3]", "IC50": "100 to 1000 nM"}
{"Molecule": "c1cc(-c2cc3nc(-n4ccc(C5CCCNC5)n4)cc(N4CCOCC4)n3n2)ccn1 (single isomer, unassigned) [Compound 76]", "IC50": "100 to 1000 nM"}
{"Molecule": "O=C1C(c2ccccc2)CCCN1c1cc(N2CCOCC2)n2nc(-c3ccncc3)cc2n1 (stereo not shown) [Compound 24]", "IC50": "1000 to 10000 nM"}
{"Molecule": "c1ccc(C2CN(c3cc(N4CCOCC4)n4nc(-c5ccncc5)cc4n3)CCN2)cc1 (stereo not shown) [Compound 35]", "IC50": "1000 to 10000 nM"}
{"Molecule": "c1cn(-c2cc(N3CCOCC3)n3nc(C4CCCO4)cc3n2)nc1C1CCOCC1 (stereo not shown) [Compound 95]", "IC50": "> 10000 nM"}
{"Molecule": "COc1nn(-c2cc(N3CCOCC3)n3nccc3n2)cc1-c1ccccc1 [Compound 77]", "IC50": "> 10000 nM"}
{"Molecule": "c1ccc(-c2nc(-c3cc(N4CCOCC4)n4nc(-c5ccncc5)cc4n3)ns2)cc1 [Compound 128]", "IC50": "10 to 100 nM"}
{"Molecule": "c1ccc(-c2ccn(-c3cc(N4CCOCC4)n4nc(C5CCCO5)cc4n3)n2)cc1 (stereo not shown) [Compound 90]", "IC50": "10 to 100 nM"}
{"Molecule": "O=C1CC(c2ccccc2)CN1c1cc(N2CCOCC2)n2nc(-c3ccncc3)cc2n1 (stereo not shown) [Compound 25]", "IC50": "1000 to 10000 nM"}

* * *

Listed below: pIC50 values for each entry.
molecular target: full-length human PIKFYVE (Homo sapiens (Human), UniProt Q9Y2I7, L932S/Q1183K/Q995L/S1033A/S696N/T998S); assay: PIKfyve biochemical assay (ADP-Glo Kinase assay, Carna Biosciences); settings: class symbols
pIC50: −log10 of the molar value.
Measurement Kind: pIC50

{"Compound": "Fc1cccc(-c2nccc(-c3cc(N4CCOCC4)n4nc(-c5ccncc5)cc4n3)n2)c1", "Measurement Kind": "pIC50", "Reported Value": "6.00 to 7.00"}
{"Compound": "Oc1cc(-c2cc(N3CCOCC3)n3nc(-c4ccncc4)cc3n2)nn1-c1cccc(F)c1", "Measurement Kind": "pIC50", "Reported Value": "7.00 to 8.00"}
{"Compound": "c1cc(-c2cc3nc(-n4cc5c(n4)CCCC5)cc(N4CCOCC4)n3n2)ccn1", "Measurement Kind": "pIC50", "Reported Value": "6.00 to 7.00"}
{"Compound": "CN1CC(c2cc(N3CCOCC3)n3nc(-c4ccncc4)cc3n2)CC1c1ccccc1 (centres unmarked)", "Measurement Kind": "pIC50", "Reported Value": "5.00 to 6.00"}
{"Compound": "c1cc(-c2cc3nc(-n4cc5c(n4)COCC5)cc(N4CCOCC4)n3n2)ccn1", "Measurement Kind": "pIC50", "Reported Value": "5.00 to 6.00"}
{"Compound": "CC(C)(C)OC(=O)N1CCCC(c2cn(-c3cc(N4CCOCC4)n4nc(-c5ccncc5)cc4n3)cn2)C1 (centres unmarked)", "Measurement Kind": "pIC50", "Reported Value": "5.00 to 6.00"}
{"Compound": "Cc1cccc(/C=N/Nc2cc(N3CC4CC3CO4)n3nc(-c4ccncc4)cc3n2)c1 (centres unmarked)", "Measurement Kind": "pIC50", "Reported Value": "7.00 to 8.00"}
{"Compound": "Fc1cncc(-c2ccn(-c3cc(N4CCOCC4)n4nc(-c5ccncc5)cc4n3)n2)c1", "Measurement Kind": "pIC50", "Reported Value": "6.00 to 7.00"}

* * *

target: full-length human PIKFYVE (Homo sapiens (Human), UniProt Q9Y2I7, L932S/Q1183K/Q995L/S1033A/S696N/T998S); assay: PIKfyve biochemical assay (ADP-Glo Kinase assay, Carna Biosciences); conditions: class symbols
Listed below: IC50 values for each entry.

{"Compound": "Cc1cccc(C(=O)COc2cc(N3CCOCC3)n3nc(-c4ccncc4)cc3n2)c1", "IC50": "1 to 10 µM"}
{"Compound": "COc1cccc(-c2ccn(-c3cc(N4CCOCC4)n4nc(-c5ccncc5)cc4n3)n2)c1", "IC50": "0.01 to 0.1 µM"}
{"Compound": "c1ccc(-c2nccc(-c3cc(N4CCOCC4)n4nc(C5CCCO5)cc4n3)n2)cc1 (centres unmarked)", "IC50": "0.01 to 0.1 µM"}
{"Compound": "c1ccc(Oc2cccnc2-c2cc(N3CCOCC3)n3nc(-c4ccncc4)cc3n2)cc1", "IC50": "0.1 to 1 µM"}
{"Compound": "c1ccc(-c2ccn(-c3cc(N4CCOCC4)n4nc(C5CCOCC5)cc4n3)n2)cc1", "IC50": "0.1 to 1 µM"}
{"Compound": "c1c(-n2cc3c(n2)CCOC3)nc2cc(C3CCCO3)nn2c1N1CCOCC1 (centres unmarked)", "IC50": "> 10 µM"}
{"Compound": "Cn1ccc(-c2cccc(-c3cc(N4CCOCC4)n4nc(-c5ccncc5)cc4n3)c2)n1", "IC50": "0.01 to 0.1 µM"}
{"Compound": "c1ccc(CC2COCCN2c2cc(N3CCOCC3)n3nc(-c4ccncc4)cc3n2)cc1 (centres unmarked)", "IC50": "1 to 10 µM"}
{"Compound": "CC(C)(C)OC(=O)NC(=N)c1cc(N2CCOCC2)n2nc(-c3ccncc3)cc2n1", "IC50": "0.1 to 1 µM"}
{"Compound": "c1ccc(C2CN(c3cc(N4CCOCC4)n4nc(-c5ccncc5)cc4n3)C2)cc1", "IC50": "1 to 10 µM"}
{"Compound": "CN1CC(=O)N(c2cc(N3CCOCC3)n3nc(-c4ccncc4)cc3n2)CC1c1ccccc1 (centres unmarked)", "IC50": "1 to 10 µM"}
{"Compound": "COc1nn(-c2cc(N3CCOCC3)n3nc(-c4ccncc4)cc3n2)cc1-c1ccccc1", "IC50": "> 10 µM"}
{"Compound": "c1cc(-c2cc3nc(-n4ccc(-c5ccnnc5)n4)cc(N4CCOCC4)n3n2)ccn1", "IC50": "0.1 to 1 µM"}
{"Compound": "Oc1cc(C2CCCCC2)nn1-c1cc(N2CCOCC2)n2nc(-c3ccncc3)cc2n1", "IC50": "0.1 to 1 µM"}
{"Compound": "c1ccc(-c2nnc(-c3cc(N4CCOCC4)n4nc(-c5ccncc5)cc4n3)o2)cc1", "IC50": "1 to 10 µM"}
{"Compound": "O=c1c(Br)c(Br)cnn1-c1cc(N2CCOCC2)n2nc(-c3ccncc3)cc2n1", "IC50": "1 to 10 µM"}
{"Compound": "CN1C(=O)CN(c2cc(N3CCOCC3)n3nc(-c4ccncc4)cc3n2)CC1c1ccccc1 (centres unmarked)", "IC50": "1 to 10 µM"}

* * *

molecular target: full-length human PIKFYVE (Homo sapiens (Human), UniProt Q9Y2I7, L932S/Q1183K/Q995L/S1033A/S696N/T998S); assay: PIKfyve biochemical assay (ADP-Glo Kinase assay, Carna Biosciences); conditions: class symbols
pIC50: −log10 of the molar value.
Listed below: pIC50 values for each entry.
Measurement Kind: pIC50

{"Compound": "c1nn(-c2cc(N3CCOCC3)n3nc(C4CCCO4)cc3n2)c2c1COCC2 (stereo not shown)", "Reported Value": "< 5.00"}
{"Compound": "COc1cnn(-c2cc(N3CCOCC3)n3nc(-c4ccncc4)cc3n2)c(=O)c1Br", "Reported Value": "5.00 to 6.00"}
{"Compound": "CN1CCN(c2cc(N3CCOCC3)n3nc(-c4ccncc4)cc3n2)C(Cc2ccccc2)C1=O (stereo not shown)", "Reported Value": "5.00 to 6.00"}
{"Compound": "c1cc(-c2cc3nc(-n4ccc(-c5cncnc5)n4)cc(N4CCOCC4)n3n2)ccn1", "Reported Value": "6.00 to 7.00"}
